The reported numbers originate from BindingDB's records for doi:10.1021/jm990095j.

Target: Gag-Pol polyprotein [588-1127,Y768C]/[588-1147,Y768C] (Human immunodeficiency virus 1, UniProt P04585, Y768C)
Construct: 588-1127; 588-1147
Assay: HIV-1 RT Assay
pIC50: −log10 of the molar value.

>  <Smiles Entry>
COc1ccc2c(c1)N(C(=O)OC(C)C)[C@@H](CSC)C(=S)N2

>  <pIC50>
8.05

$$$$

* * *

Molecular target: Gag-Pol polyprotein [588-1027]/[588-1147] (Human immunodeficiency virus 1)
Construct: 588-1027; 588-1147
Test: HIV-1 RT Assay
Details: pH 7.8; 37 °C
pIC50: −log10 of the molar value.
Parameter pIC50: see the listing below.

>  <Smiles Entry>
COc1ccc(OC)c(CCNC(=O)Nc2ccc(Cl)cn2)c1F

>  <pIC50>
8.52

$$$$
>  <Smiles Entry>
CCOc1ccc(F)c(CCNC(=O)Nc2ccc(Br)cn2)c1Cl

>  <pIC50>
8.40

$$$$
>  <Smiles Entry>
CN(C)c1ccc(F)c(CCNC(=O)Nc2ccc(Br)cn2)c1F

>  <pIC50>
7.60

$$$$

* * *

Molecular target: Gag-Pol polyprotein [588-1027,K690N]/[588-1147,K690N] (Human immunodeficiency virus 1, UniProt P04585, K690N)
Construct: 588-1027; 588-1147
Assay: HIV-1 RT Assay
Settings: pH 7.8; 37 °C
Measured Endpoint: IC50

>  <Smiles Entry>
CCOc1ccc(F)c(CCNC(=O)Nc2ccc(Br)cn2)c1Cl

>  <Measured Endpoint>
IC50

>  <Result>
> 2400 nM

$$$$
>  <Smiles Entry>
COc1ccc(C(C)=O)c(F)c1CCNC(=O)Nc1ccc(Cl)cn1

>  <Measured Endpoint>
IC50

>  <Result>
> 2700 nM

$$$$
>  <Smiles Entry>
CN(C)c1ccc(F)c(CCNC(=O)Nc2ccc(Br)cn2)c1F

>  <Measured Endpoint>
IC50

>  <Result>
> 2500 nM

$$$$
>  <Smiles Entry>
COc1c(C(C)=O)ccc(F)c1CCNC(=O)Nc1ccc(Cl)cn1

>  <Measured Endpoint>
IC50

>  <Result>
> 2700 nM

$$$$
